Origin of measurements: PubChem BioAssay (NCI)

Each entry below carries its reported GI50.
- System: SK-MEL-5 melanoma
- assay-text: NCI tumour cell line growth inhibition, 48 h

- smiles-data: "CC(C)(C)OC(=O)n1cc(CNC(=S)Nc2ccccc2)c2ccccc21"
  GI50: "4.51 µM"
- smiles-data: "COc1ccc2cc1Oc1ccc(cc1)C[C@H]1c3cc(c(OC)cc3CCN1C)Oc1c(OC)c(OC)cc3c1[C@H](C2)N(C)CC3"
  GI50: "3.94 µM"
- smiles-data: "COc1cccc(/C=C/C(=O)c2cc3c(N)c(C(=O)Nc4ccccc4C)sc3nc2C)c1"
  GI50: "1.44 µM"
- smiles-data: "CC(C)(C)c1cc(O)c(O)c(C(C)(C)C)c1"
  GI50: "4.68 µM"

----------
Measured TGI accompanies every entry in the list below.
- System: OVCAR-8 ovarian
- assay-text: NCI tumour cell line growth inhibition, 48 h
readout-label: TGI

- compound: "O=C1CCCN(c2ccccc2)N1"
  readout-label: "TGI"
  data-value: "> 100 µM"
- compound: "Clc1cc(N/N=C(/c2ccccc2)c2ncccn2)ncn1"
  readout-label: "TGI"
  data-value: "34.6 µM"
- compound: "Nc1ccccc1Nc1ccccc1C(=O)[O-].Nc1ccccc1Nc1ccccc1C(=O)[O-].[Cu+2]"
  readout-label: "TGI"
  data-value: "> 100 µM"
- compound: "Brc1cccc(-c2cc(-c3ccc4c(c3)OCCO4)[nH]n2)c1"
  readout-label: "TGI"
  data-value: "40.1 µM"
- compound: "Cc1ccc(N=Nc2c3c(c(O)c4ccccc24)CCC(C)(C)O3)cc1"
  readout-label: "TGI"
  data-value: "> 100 µM"
- compound: "Cc1c(S(=O)(=O)c2ccccc2)c(N)n(Cc2ccccc2)c1C"
  readout-label: "TGI"
  data-value: "> 100 µM"
- compound: "COc1ccc(-c2c(C#N)c(N)n(C3OC(CO)C(O)C(O)C3O)c(=S)c2C#N)cc1 (stereo not drawn)"
  readout-label: "TGI"
  data-value: "> 100 µM"
- compound: "OCC1CCCC(n2cnc3c(=S)nc[nH]c32)O1 (stereo not drawn)"
  readout-label: "TGI"
  data-value: "> 100 µM"
- compound: "CN=C(N)N/N=C(\\c1ccccc1)c1ccc(Br)cc1"
  readout-label: "TGI"
  data-value: "5.16 µM"
- compound: "COc1cc2c3c(cccc3c1)C(=O)N(CCN1CCCC1)C2=O"
  readout-label: "TGI"
  data-value: "> 100 µM"
- compound: "CCOC(=O)c1cc2c([N+](=O)[O-])c(NC(C)=O)ccc2s1"
  readout-label: "TGI"
  data-value: "> 100 µM"
- compound: "Cc1nn(-c2ccc(F)cc2)c2ncnc(Nc3ccc(NC(=O)Nc4ccc(Cl)c(C(F)(F)F)c4)cc3)c12"
  readout-label: "TGI"
  data-value: "10 µM"
- compound: "Nc1nc(Cl)cc(NCC2(CO)CC(CCc3ccccc3)C2)n1 (stereo not drawn)"
  readout-label: "TGI"
  data-value: "> 100 µM"

----------
- System: SN12C renal
- assay-text: NCI tumour cell line growth inhibition, 48 h

- compound: "COc1cc2oc(-c3ccc(O)cc3)c(OC3OC(C)C(O)C(O)C3O)c(=O)c2c(O)c1OC (centres undefined)"
  TGI: "> 100 µM"
- compound: "CC(=O)NC1C(OCc2ccccc2)OC(CO)C(O)C1OCC(=O)N[C@@H](C)C(=O)N[C@H](CCC(=O)NCCNCCNc1c2ccccc2nc2cccc([N+](=O)[O-])c12)C(N)=O (some centres undefined)"
  TGI: "> 100 µM"
- compound: "Cc1cc2nc3c4cc(Cl)ccc4n(CCN(C)C)c3nc2cc1C"
  TGI: "8.45 µM"
- compound: "CCCCCCCCCCCCC(=O)OC(c1cnco1)c1nc(C(O)CC(O)C(O)C(C)O)co1 (centres undefined)"
  TGI: "> 100 µM"
- compound: "COC1O[C@H]2CCN(C(=O)OCc3ccccc3)[C@H]2[C@H]1OCc1ccccc1 (some centres undefined)"
  TGI: "> 100 µM"
- compound: "O=C1O[C@@H](c2ccccc2)C[C@@H]1CN1CCOCC1"
  TGI: "> 100 µM"
- compound: "Cc1cccc(N2C(=O)C3ON(C(C(N)=O)c4ccccc4)C(c4c5ccccc5c(Cl)c5ccccc45)C3C2=O)c1C (centres undefined)"
  TGI: "15.6 µM"
- compound: "CO[C@@H](C(=O)OC1C=CC2(CC1)C(=O)N(C)c1ccccc12)c1ccccc1 (some centres undefined)"
  TGI: "> 100 µM"
- compound: "CC[C@@H]1CC[C@@H]2[C@H](CC[C@]3(C)[C@@H](O)CC[C@@H]23)[C@H]1C(=O)O"
  TGI: "> 100 µM"
- compound: "N#CC1(c2nc3ccccc3o2)C(=O)C(=O)N(C2C3CC4CC(C3)CC2C4)C(=O)C1=O (centres undefined)"
  TGI: "> 100 µM"
- compound: "O=[Se]([O-])c1ccccc1.O=[Se]([O-])c1ccccc1.[OH3+].[OH3+].[Pt+2]"
  TGI: "53.3 µM"
- compound: "COC1(C)CC2N(C(=O)c3ccccc3)N=C(c3ccccc3)CC2(C)O1 (centres undefined)"
  TGI: "> 100 µM"
- compound: "CCn1cc(C(c2ccc(Cl)cc2)n2ccnc2)c2cc(Br)ccc21 (centres undefined)"
  TGI: "> 100 µM"
- compound: "COc1ccc(-c2cc(-c3cc(Cl)ccc3Cl)nc3[nH]c(-c4cc(F)c(Cl)cc4Cl)cc(=O)c23)cc1"
  TGI: "76.8 µM"
- compound: "COc1ccc(Nc2[nH]c(C(C)=O)c(N)c2C(=S)Nc2ccccc2)cc1"
  TGI: "> 100 µM"
- compound: "CCOC(=O)c1cc(C2(O)CCN(Cc3ccccc3)C2=O)c(-c2cc(C)no2)[nH]1 (centres undefined)"
  TGI: "> 100 µM"
- compound: "O=C(/C=C/c1ccccc1)/C=C/c1ccccc1O"
  TGI: "30.4 µM"
- compound: "CCCCCCCCCCCCCC(=S)NCCCC[C@H](NC(=O)OCc1ccccc1)C(=O)Nc1ccccc1"
  TGI: "> 100 µM"
- compound: "c1cc(-c2cnc(-c3ccc4c(c3)CCCO4)o2)ccn1"
  TGI: "46.4 µM"
- compound: "CCOC(=O)C1=C(C)Nc2ccccc2S1"
  TGI: "> 100 µM"
- compound: "Cc1c(S(=O)(=O)c2ccccc2)c(N)n(Cc2ccccc2)c1C"
  TGI: "> 100 µM"
- compound: "O=C(/C=C/c1ccc(Cl)cc1)c1ccc(Cl)cc1Cl"
  TGI: "20.9 µM"
- compound: "Cn1cc(NC(=O)c2cc(NC(=O)CCCCCCCCCCC(=O)Nc3cc(C(=O)Nc4cc(C(=O)NCCC(=N)N)n(C)c4)n(C)c3)cn2C)cc1C(=O)NCCC(=N)N"
  TGI: "> 100 µM"
- compound: "CN1CCN(Cc2ccc(C(=O)Nc3cncc(C#Cc4cnc(N)c5ccccc45)c3)cc2C(F)(F)F)CC1"
  TGI: "3.47 µM"
- compound: "FC(F)(F)c1nc(-c2ccccc2Cl)[nH]c1C(F)(F)F"
  TGI: "3.14 µM"
- compound: "Nc1nc2ncc(SCc3ccc(C(=O)NC(CCC(=O)O)C(=O)O)cc3)cc2c(=O)[nH]1 (centres undefined)"
  TGI: "> 100 µM"
- compound: "O=C(Nc1cccc(-n2ccc3c(NC(=O)c4ccccc4)nccc32)c1)c1cccc(C(F)(F)F)c1"
  TGI: "> 59.3 µM"
- compound: "Nc1n[nH]c2ccc([C@@H]3Nc4ccc5[nH]ncc5c4[C@H]4[C@H]5CCC(C5)[C@H]43)cc12"
  TGI: "> 89.7 µM"
- compound: "CCOc1ccc(S(=O)(=O)/N=C2\\C=C(SCC(=O)O)C(=O)c3ccccc32)cc1"
  TGI: "4.97 µM"
- compound: "COc1ccc(/C(=C/n2ccnc2)C(=O)c2ccc(OC)c(OC)c2)cc1"
  TGI: "> 100 µM"
- compound: "Cc1sc2nc3n(c(=O)c2c1C)N=CN(c1ccccc1)C3"
  TGI: "> 100 µM"
- compound: "Cc1cc([C@@H](C)Nc2ccccc2C(=O)O)c2nc(N3CCOCC3)cc(=O)n2c1"
  TGI: "> 10 µM"
- compound: "COc1c(C2CC(=O)Nc3c2cnn3Cc2ccco2)cc2c(c1OC)OCO2 (centres undefined)"
  TGI: "> 100 µM"
- compound: "O=c1[nH]c2ccccc2cc1C(Cl)=C(Cl)Cl"
  TGI: "> 100 µM"
- compound: "Cc1ccccc1C1OC1C(=O)c1ccccc1N (centres undefined)"
  TGI: "> 100 µM"
- compound: "COC(=O)C(c1[nH]nc2ccccc12)C(C(=O)OC)c1[nH]nc2ccccc12 (centres undefined)"
  TGI: "> 100 µM"
- compound: "CNC(=O)c1ccccc1CC1(O)c2ccccc2Oc2ccccc21"
  TGI: "> 100 µM"
- compound: "O=C(c1ccc2ccccc2c1)c1c(C(F)(F)F)n([O-])c2cc(Cl)c(Cl)cc2[n+]1=O"
  TGI: "3.1 µM"
- compound: "CN(C)/C(=N/C(=S)Nc1ccccc1)SCc1ccccc1"
  TGI: "> 100 µM"
